target: T1, AFP158/HLA-A*02:01 complex (human); assay: SPR, fold vs AS170036 VL1VH1;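 further: crude scFv muteins immobilised on a sensor chip, peptide–MHC complex passed over at several concentrations, binding then buffer-driven dissociation, KD estimated from on- and off-rates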
T1 construct: flowed as analyte in SPR
Task for the reader: assign each of the following binders its reported Affinity increase.
Record the value in fold, omitting the unit from your answer.

Complete the entry with Affinity increase for AS170036 VL1VH1-98I108A (scFv, also called 34-AS170036 VL1VH1-98I108A; 34-AS170036 VL1VH1-98I08A) scFv: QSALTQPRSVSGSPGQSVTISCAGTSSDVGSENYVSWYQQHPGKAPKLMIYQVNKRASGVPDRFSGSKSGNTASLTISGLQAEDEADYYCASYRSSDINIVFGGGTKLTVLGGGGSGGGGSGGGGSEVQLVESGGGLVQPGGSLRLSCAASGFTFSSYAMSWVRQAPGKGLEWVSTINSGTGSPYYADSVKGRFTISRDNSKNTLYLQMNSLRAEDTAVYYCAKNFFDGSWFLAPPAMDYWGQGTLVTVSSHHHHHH
20.1

Given AS170036 VL1VH1-57K108A (scFv, also called 25-AS170036 VL1VH1-57K108A) scFv: QSALTQPRSVSGSPGQSVTISCAGTSSDVGSENYVSWYQQHPGKAPKLMIYQVNKRASGVPDRFSGSKSGNTASLTISGLQAEDEADYYCASYRSSDHNIVFGGGTKLTVLGGGGSGGGGSGGGGSEVQLVESGGGLVQPGGSLRLSCAASGFTFSSYAMSWVRQAPGKGLEWVSTINSGTGKPYYADSVKGRFTISRDNSKNTLYLQMNSLRAEDTAVYYCAKNFFDGSWFLAPPAMDYWGQGTLVTVSSHHHHHH , respond with its Affinity increase.
22.5
